Hey, just so you know, these numbers are from paper PMC8037182.

System: Hela cell line
Assay: Cytotoxicity MTS assay, Hela cell line;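 further: blank control wells received 0.025% DMSO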
Assay type: cell-based
Settings: Hela cell line, MTS, 50μM, first assay
Listing: OD490 value, Mean of selected compounds

>  <Compound>
CCOC(=O)c1c(C2NC(=O)NC(C)=C2C(=O)Nc2ccccc2)[nH]c(C(=O)OC)c1C (centres unmarked) [D10]

>  <OD490 value, Mean>
1.8479

$$$$
>  <Compound>
CCOc1ccccc1C1NC(=S)NC(C)=C1C(=O)Nc1ccc(Cl)cc1 (centres unmarked) [C9]

>  <OD490 value, Mean>
1.6538

$$$$
>  <Compound>
CCOC(=O)c1c(C2NC(=O)NC(C)=C2C(=O)Nc2ccccc2C)[nH]c(C(=O)OC)c1C (centres unmarked) [D2]

>  <OD490 value, Mean>
2.6499

$$$$
>  <Compound>
CCOC(=O)c1[nH]c(C2NC(=O)NC(C)=C2C(=O)Nc2ccccc2C)c(C(=O)OC)c1C (centres unmarked) [D4]

>  <OD490 value, Mean>
2.4897

$$$$
>  <Compound>
CCOC(=O)c1[nH]c(C2NC(=O)NC(C)=C2C(=O)Nc2ccccc2OC)c(C(=O)OC)c1C (centres unmarked) [D3]

>  <OD490 value, Mean>
2.2890

$$$$
>  <Compound>
CCOC(=O)c1[nH]c(C2NC(=S)NC(C)=C2C(=O)OC)c(C(=O)OCC)c1C (centres unmarked) [D12]

>  <OD490 value, Mean>
2.5183

$$$$
>  <Compound>
CCOC(=O)c1c(C2NC(=O)NC(C)=C2C(=O)Nc2ccccc2OC)[nH]c(C(=O)OC)c1C (centres unmarked) [D1]

>  <OD490 value, Mean>
2.0448

$$$$
>  <Compound>
CCOC(=O)c1[nH]c(C2NC(=O)NC(C)=C2C(=O)Nc2ccc(Cl)cc2)c(C(=O)OCC)c1C (centres unmarked) [D7]

>  <OD490 value, Mean>
2.4563

$$$$

###

Listing: OD490 values, Well 1 of selected molecules
Test system: L929 cell line
Experiment: Cytotoxicity MTS assay, L929 cell line
Format: cell-based
Settings: L929 cell line, 25μM, second assay

>  <Molecule>
CCOC(=O)c1c(C2NC(=O)NC(C)=C2C(=O)Nc2ccccc2OC)[nH]c(C(=O)OC)c1C (stereo not drawn) [D1]

>  <OD490 values, Well 1>
1.6525

$$$$
>  <Molecule>
CCOC(=O)c1[nH]c(C2NC(=O)NC(C)=C2C(=O)Nc2ccc(Cl)cc2)c(C(=O)OCC)c1C (stereo not drawn) [D7]

>  <OD490 values, Well 1>
1.4655

$$$$
>  <Molecule>
CCOC(=O)c1[nH]c(C2NC(=O)NC(C)=C2C(=O)Nc2ccccc2C)c(C(=O)OC)c1C (stereo not drawn) [D4]

>  <OD490 values, Well 1>
1.4545

$$$$
>  <Molecule>
COC(=O)c1[nH]c(C2NC(=S)NC(C)=C2C(=O)c2ccccc2)c(C(=O)OC)c1C (stereo not drawn) [D14]

>  <OD490 values, Well 1>
1.3065

$$$$
>  <Molecule>
CCOc1ccccc1C1NC(=S)NC(C)=C1C(=O)Nc1ccc(Cl)cc1 (stereo not drawn) [C9]

>  <OD490 values, Well 1>
1.4563

$$$$
>  <Molecule>
CCOC(=O)c1[nH]c(C2NC(=S)NC(C)=C2C(=O)OC)c(C(=O)OCC)c1C (stereo not drawn) [D12]

>  <OD490 values, Well 1>
1.4632

$$$$

###

System: Hela cell line
Assay: Cytotoxicity MTS assay, Hela cell line;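 further: blank control wells received 0.025% DMSO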
Format: cell-based
Conditions: Hela cell line, MTS, 1μM, first assay

>  <Compound>
CCOC(=O)c1[nH]c(C2NC(=O)NC(C)=C2C(=O)Nc2ccc(Cl)cc2)c(C(=O)OCC)c1C (stereo not shown)

>  <OD490 value, Well 2>
2.4632

$$$$
>  <Compound>
CCOC(=O)c1[nH]c(C2NC(=O)NC(C)=C2C(=O)Nc2ccccc2C)c(C(=O)OC)c1C (stereo not shown)

>  <OD490 value, Well 2>
2.5466

$$$$
>  <Compound>
CCOC(=O)c1c(C2NC(=O)NC(C)=C2C(=O)Nc2ccccc2OC)[nH]c(C(=O)OC)c1C (stereo not shown) [D1]

>  <OD490 value, Well 2>
2.5442

$$$$
>  <Compound>
CCOC(=O)c1[nH]c(C2NC(=O)NC(C)=C2C(=O)Nc2ccccc2OC)c(C(=O)OC)c1C (stereo not shown)

>  <OD490 value, Well 2>
2.5242

$$$$

###

Listing: OD490 value, Well 3 of selected compounds
Tested on: Hela cell line
Assay: Cytotoxicity MTS assay, Hela cell line;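 further: blank control wells received 0.025% DMSO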
Assay type: cell-based
Conditions: Hela cell line, MTS, 10μM, first assay
Result Type: OD490 value, Well 3

>  <Compound>
CCOC(=O)c1[nH]c(C2NC(=S)NC(C)=C2C(=O)OC)c(C(=O)OCC)c1C (centres unmarked) [D12]

>  <Test System>
Hela cell line

>  <Value>
2.7920

$$$$
>  <Compound>
CCOC(=O)c1c(C2NC(=O)NC(C)=C2C(=O)Nc2ccccc2)[nH]c(C(=O)OC)c1C (centres unmarked) [D10]

>  <Test System>
Hela cell line

>  <Value>
2.5408

$$$$
>  <Compound>
CCOC(=O)c1c(C2NC(=O)NC(C)=C2C(=O)Nc2ccccc2C)[nH]c(C(=O)OC)c1C (centres unmarked) [D2]

>  <Test System>
Hela cell line

>  <Value>
2.6077

$$$$
>  <Compound>
CCOC(=O)c1[nH]c(C2NC(=O)NC(C)=C2C(=O)Nc2ccccc2C)c(C(=O)OC)c1C (centres unmarked) [D4]

>  <Test System>
Hela cell line

>  <Value>
2.7295

$$$$
>  <Compound>
CCOc1ccccc1C1NC(=S)NC(C)=C1C(=O)Nc1ccc(Cl)cc1 (centres unmarked) [C9]

>  <Test System>
Hela cell line

>  <Value>
2.3820

$$$$
>  <Compound>
CCOC(=O)c1c(C2NC(=O)NC(C)=C2C(=O)Nc2ccccc2OC)[nH]c(C(=O)OC)c1C (centres unmarked) [D1]

>  <Test System>
Hela cell line

>  <Value>
2.3272

$$$$
>  <Compound>
CCOC(=O)c1[nH]c(C2NC(=O)NC(C)=C2C(=O)Nc2ccc(Cl)cc2)c(C(=O)OCC)c1C (centres unmarked) [D7]

>  <Test System>
Hela cell line

>  <Value>
2.5244

$$$$
>  <Compound>
CCOC(=O)c1[nH]c(C2NC(=O)NC(C)=C2C(=O)Nc2ccccc2OC)c(C(=O)OC)c1C (centres unmarked) [D3]

>  <Test System>
Hela cell line

>  <Value>
2.4948

$$$$

###

Listing: OD490 Mean of selected compounds
Test system: Caco-2 cell line
Experiment: Cytotoxicity MTS assay, Caco-2 cell line
Format: cell-based
Settings: 0.5μM; third assay; Caco-2 cell line
Procedure: The positive compounds (IC50 < 100 μM) obtained from the primary Eg5 motor protein ATPase assay were tested for antiproliferative activity in vitro against Caco-2 cell line, Hela cell line, L929 cell line and T24 cell line by performing MTS assay. Cells were introduced into 96-well plates at a density of 1000 cells per well. After 24 h incubation, the cells were exposed with compounds at final concentrations ranging from 0.5 to 100 µM for 24 h. […]
Result Type: OD490 Mean

>  <Compound>
CCOC(=O)c1[nH]c(C2NC(=O)NC(C)=C2C(=O)Nc2ccccc2OC)c(C(=O)OC)c1C (stereo not shown)

>  <Test System>
Caco-2 cell line

>  <Value>
0.6707

$$$$
>  <Compound>
CCOc1ccccc1C1NC(=S)NC(C)=C1C(=O)Nc1ccc(Cl)cc1 (stereo not shown)

>  <Test System>
Caco-2 cell line

>  <Value>
0.6809

$$$$
>  <Compound>
CCOC(=O)c1c(C2NC(=O)NC(C)=C2C(=O)Nc2ccccc2)[nH]c(C(=O)OC)c1C (stereo not shown)

>  <Test System>
Caco-2 cell line

>  <Value>
0.6289

$$$$
>  <Compound>
CCOC(=O)c1c(C2NC(=O)NC(C)=C2C(=O)Nc2ccccc2OC)[nH]c(C(=O)OC)c1C (stereo not shown) [D1]

>  <Test System>
Caco-2 cell line

>  <Value>
0.6142

$$$$
>  <Compound>
COC(=O)c1[nH]c(C2NC(=S)NC(C)=C2C(=O)c2ccccc2)c(C(=O)OC)c1C (stereo not shown)

>  <Test System>
Caco-2 cell line

>  <Value>
0.6452

$$$$
>  <Compound>
CCOC(=O)c1[nH]c(C2NC(=S)NC(C)=C2C(=O)OC)c(C(=O)OCC)c1C (stereo not shown)

>  <Test System>
Caco-2 cell line

>  <Value>
0.6157

$$$$
>  <Compound>
CCOC(=O)C1=C(C)NC(=S)NC1c1cccc(O)c1 (stereo not shown) [Monastrol, monastrol, reference compound]

>  <Test System>
Caco-2 cell line

>  <Value>
0.6299

$$$$
>  <Compound>
CCOC(=O)c1[nH]c(C2NC(=O)NC(C)=C2C(=O)Nc2ccc(Cl)cc2)c(C(=O)OCC)c1C (stereo not shown)

>  <Test System>
Caco-2 cell line

>  <Value>
0.5837

$$$$
>  <Compound>
CCOC(=O)c1[nH]c(C2NC(=O)NC(C)=C2C(=O)Nc2ccccc2C)c(C(=O)OC)c1C (stereo not shown)

>  <Test System>
Caco-2 cell line

>  <Value>
0.6609

$$$$
>  <Compound>
CCOC(=O)c1c(C2NC(=O)NC(C)=C2C(=O)Nc2ccccc2C)[nH]c(C(=O)OC)c1C (stereo not shown) [D2]

>  <Test System>
Caco-2 cell line

>  <Value>
0.6851

$$$$
